System: HT-29
Experiment: NCI tumour cell line growth inhibition, 48 h
Activity calls are given as the source filed them. Cut-off read from the data, not from the text of the source: active = GI50 up to about 1.1 µM and inactive = higher.
This listing pairs molecules with measured GI50.

# annotated cases, reported GI50 shown
Molecule | Result
COc1cccc(/C=C\c2ccnc3ccccc23)c1 | > 10 µM (inactive)
O=C(Nc1ccccc1)c1cc(S(=O)(=O)n2ccnc2O)c(S)cc1Cl | > 100 µM (inactive)
COC(=O)N1CC[C@@H]2CCC=C(c3cccc4c3OCO4)[C@@H]21 | 79.6 µM (inactive)

// GI50 lookup, key: CN1C(=O)CC(CC(=O)C2CCCCC2=O)CC1=O (stereo unspecified)
> 100 µM (inactive)

// GI50 lookup, key: `Cc1cc(=O)c2ccccc2n1CCCCCCCCCCn1c(C)cc(=O)c2ccccc21`
15.9 µM (inactive)
